Species on record: Cavia porcellus
Assay: Compound was tested for the displacement of [3H]mepyramine from Histamine H1 receptor by competition binding assay.
// NB: equality with 40 nM counts as 0; only K0.5 strictly below is 1

[[record]]
compound = "C[N+](C)(C)C1Cc2ccccc2C(c2ccccc2)C1 (stereo in doubt; 25)"
label_value = 0

[[record]]
compound = "CN(C)C1Cc2ccccc2C(c2ccc(Cl)cc2)C1 (stereo unspecified)"
label_value = 1

[[record]]
compound = "CN(C)C1Cc2ccccc2C(c2ccc(F)cc2)C1 (stereo unspecified)"
label_value = 1

[[record]]
compound = "CN(C)c1ccc2c3c(cccc13)-c1ccccc1-2"
label_value = 0

[[record]]
compound = "CN(C)C1Cc2ccccc2C(c2ccccc2)C1 (stereo in doubt; 1d)"
label_value = 0


For the next question, use this compound.
Ask: Below 40 nM on K0.5? Entry C=CCN1CC[C@@]2(C)c3cc(O)ccc3C[C@H]1[C@H]2C
Reply: 0
